Molecular target: AhR (Homo sapiens)
Construct: host or cells: HepG2
Sequence (P35869 11-848): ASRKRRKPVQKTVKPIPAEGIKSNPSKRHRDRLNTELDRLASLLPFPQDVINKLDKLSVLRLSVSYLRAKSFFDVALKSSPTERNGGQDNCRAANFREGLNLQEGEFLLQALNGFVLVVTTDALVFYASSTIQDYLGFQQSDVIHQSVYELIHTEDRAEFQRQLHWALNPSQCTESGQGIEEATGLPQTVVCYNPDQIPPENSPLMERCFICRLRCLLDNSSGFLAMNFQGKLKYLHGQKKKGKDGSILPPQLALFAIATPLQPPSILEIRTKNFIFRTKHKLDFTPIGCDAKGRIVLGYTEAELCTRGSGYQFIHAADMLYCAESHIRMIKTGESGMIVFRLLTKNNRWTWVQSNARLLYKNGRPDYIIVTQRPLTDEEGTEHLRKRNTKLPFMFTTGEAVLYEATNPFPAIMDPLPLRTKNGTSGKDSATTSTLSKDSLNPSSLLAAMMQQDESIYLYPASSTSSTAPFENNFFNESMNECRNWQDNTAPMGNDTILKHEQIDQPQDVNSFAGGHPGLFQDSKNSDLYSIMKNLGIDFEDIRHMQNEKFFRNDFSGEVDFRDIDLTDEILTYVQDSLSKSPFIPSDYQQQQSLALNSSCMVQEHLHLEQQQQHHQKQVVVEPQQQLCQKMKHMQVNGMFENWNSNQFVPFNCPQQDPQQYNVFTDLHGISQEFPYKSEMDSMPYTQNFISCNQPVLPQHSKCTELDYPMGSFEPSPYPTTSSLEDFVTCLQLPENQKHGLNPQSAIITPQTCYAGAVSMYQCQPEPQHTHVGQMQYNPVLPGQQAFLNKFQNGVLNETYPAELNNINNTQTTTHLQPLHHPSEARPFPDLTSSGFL
Experiment: In vitro assay 1: XRE-luciferase reporter assay, antagonism in human cell line (HepG2)
Type: cell-based
Conditions: HepG2 XRE-luciferase, cells treated with kynurenine 200 μM (no *), 6 hours; read-out: Assay 1: AhR-Luc Human Antagonism (IC50)
pIC50: −log10 of the molar value. Where a name gives a salt, the structure may show the parent alone.
# pIC50 values compiled below
observable: pIC50

O=c1c2cc(-c3cnc(C(F)(F)F)nc3)nc(-c3cccnc3)c2ncn1[C@@H]1CC[C@H](O)C1 [Example 72, TFA salt]; 7.00 to 8.00
O=c1c2cc(-c3ccc(Cl)cc3)nc(-c3cccnc3)c2ncn1[C@H]1CCCC[C@H]1O; < 6.00
CC(C)(O)Cn1cnc2c(-c3cccnc3)nc(-c3ccc(Cl)cc3)cc2c1=O; > 8.00
CC(CO)n1cnc2c(-c3cccnc3)nc(-c3ccc(N4CCOCC4)cc3)cc2c1=O (centres unmarked); > 8.00
Cn1cc(-c2nc(-c3ccc(Cl)cc3)cc3c(=O)n([C@@H]4CC[C@H](O)C4)cnc23)cn1; 7.00 to 8.00
Cn1cc(-c2nc(-c3ccc(C(F)(F)F)cc3)cc3c(=O)n(-c4cccc(O)c4)cnc23)cn1; > 8.00
O=c1c2cc(-c3ccc(C(F)(F)F)cc3)nc(-c3cccnc3)c2ncn1[C@@H]1CCCC[C@@H]1O; > 8.00
Cn1cc(-c2nc(-c3ccc(Cl)cc3)cc3c(=O)n([C@H]4CCCC[C@H]4O)cnc23)cn1; < 6.00
O=c1c2cc(-c3ccc(C(F)(F)F)cc3)nc(-c3cccnc3)c2ncn1[C@H]1CCCC[C@H]1O; < 6.00
CC(=O)NCC(C)n1cnc2c(-c3cccnc3)nc(-c3ccc(C(F)(F)F)cc3)cc2c1=O (centres unmarked); 7.00 to 8.00
CC(C)(O)Cn1cnc2c(-c3cccnc3)nc(-c3ccc(C(F)(F)F)nc3)cc2c1=O; > 8.00
O=c1c2cc(-c3ccc(C(F)(F)F)cc3)nc(-c3cccnc3)c2ncn1[C@H]1CC[C@@H](O)C1; > 8.00
CC(C)(O)Cn1cnc2c(-c3cccnc3)nc(-c3ccc(C(F)(F)F)cc3)cc2c1=O; < 6.00
Cn1cc(-c2nc(-c3ccc(C(F)(F)F)cc3)cc3c(=O)n(CC(O)C(F)(F)F)cnc23)cn1 (centres unmarked); > 8.00
CS(=O)(=O)N1CCC(n2cnc3c(-c4cccnc4)nc(-c4ccc(Cl)cc4)cc3c2=O)CC1; > 8.00
O=c1c2cc(-c3ccc(Cl)cc3)nc(-c3cccnc3)c2ncn1[C@@H]1CC[C@H](O)C1; > 8.00
CN1CCN(c2ccc(-c3cc4c(=O)n(CC(O)CO)cnc4c(-c4cccnc4)n3)cc2)CC1 (centres unmarked); < 6.00
Cn1cc(-c2nc(-c3ccc(Cl)cc3)cc3c(=O)n(C4CCCC(O)C4)cnc23)cn1 (centres unmarked); 7.00 to 8.00
Cn1cc(-c2nc(-c3ccc(C(F)(F)F)cc3)cc3c(=O)n([C@@H]4CC[C@H](O)C4)cnc23)cn1; > 8.00
O=c1c2cc(-c3ccc(Cl)cc3)nc(-c3cccnc3)c2ncn1-c1cccc(O)c1; > 8.00
